FYI, the data here is from patent US8895744B2.

- Tested on: NPM/ALK positive SUDHL-1 cells
- PROCEDURE DETAILS: Tritiated thymidine uptake cell proliferation assay, SUDHL-1
- Type: cell-based
- MEASUREMENT SETUP: 3[H]-thymidine uptake, 72 h
VALUE TYPE: IC50 (µM)
Expressed in µM, but write only the number.

For reference, reported IC50 for O=Cc1ccc2[nH]c3ncc(Cl)cc3c2c1 [R267] stands at 9.4

Entry COc1ccc(CNC(=O)CCC(=O)c2ccc3[nH]c4ncc(Cl)cc4c3c2)cc1 [R304] , IC50 reported as 8.4

Consider COc1ccc(-c2ccc3[nH]c4nc(-c5ccc(OC)cc5)ccc4c3c2)cc1 [R311] . Its measured IC50 is 32

IC50 reading for CN(C)CCSCC(=O)c1ccc2[nH]c3ncccc3c2c1 [R263] : 13

In plain terms, CCN(CC)CCCOc1ccc(-c2ccc3[nH]c4ncc(C=Cc5ccccc5)cc4c3c2)cc1 [R340] has a documented IC50 of 0.7

c1ccc(CCc2ccc3[nH]c4ncc(-c5ccc6c(c5)OCO6)cc4c3c2)cc1 [R354] yielded IC50 of 25

Entry under test: CCN(CC)CCCOc1ccc(-c2ccc3[nH]c4ncc(/C=C/c5ccccc5)cc4c3c2)cc1 [R338] . Its IC50 was 0.4

====

- Tested on: NPM/ALK positive KARPAS-299 cells
- PROCEDURE DETAILS: Tritiated thymidine uptake cell proliferation assay, KARPAS-299
- Type: cell-based
- MEASUREMENT SETUP: 3[H]-thymidine uptake, 72 h, read-out: K299 (NPM/ALK+) IC50
pIC50: −log10 of the molar value.
VALUE TYPE: pIC50

What the record says about Clc1cnc2[nH]c3ccc(Br)cc3c2c1 [R252, 6-bromo-3-chloro-9H-pyrido[2,3-b]indole] : pIC50 is < 4.70

====

- TARGET DESC: BaF3 cells transformed with the oncogenic fusion protein bcr-abl (Homo sapiens, UniProt P00519)
- Sequence (P00519 whole entry, change not shown, the tested form may be a part): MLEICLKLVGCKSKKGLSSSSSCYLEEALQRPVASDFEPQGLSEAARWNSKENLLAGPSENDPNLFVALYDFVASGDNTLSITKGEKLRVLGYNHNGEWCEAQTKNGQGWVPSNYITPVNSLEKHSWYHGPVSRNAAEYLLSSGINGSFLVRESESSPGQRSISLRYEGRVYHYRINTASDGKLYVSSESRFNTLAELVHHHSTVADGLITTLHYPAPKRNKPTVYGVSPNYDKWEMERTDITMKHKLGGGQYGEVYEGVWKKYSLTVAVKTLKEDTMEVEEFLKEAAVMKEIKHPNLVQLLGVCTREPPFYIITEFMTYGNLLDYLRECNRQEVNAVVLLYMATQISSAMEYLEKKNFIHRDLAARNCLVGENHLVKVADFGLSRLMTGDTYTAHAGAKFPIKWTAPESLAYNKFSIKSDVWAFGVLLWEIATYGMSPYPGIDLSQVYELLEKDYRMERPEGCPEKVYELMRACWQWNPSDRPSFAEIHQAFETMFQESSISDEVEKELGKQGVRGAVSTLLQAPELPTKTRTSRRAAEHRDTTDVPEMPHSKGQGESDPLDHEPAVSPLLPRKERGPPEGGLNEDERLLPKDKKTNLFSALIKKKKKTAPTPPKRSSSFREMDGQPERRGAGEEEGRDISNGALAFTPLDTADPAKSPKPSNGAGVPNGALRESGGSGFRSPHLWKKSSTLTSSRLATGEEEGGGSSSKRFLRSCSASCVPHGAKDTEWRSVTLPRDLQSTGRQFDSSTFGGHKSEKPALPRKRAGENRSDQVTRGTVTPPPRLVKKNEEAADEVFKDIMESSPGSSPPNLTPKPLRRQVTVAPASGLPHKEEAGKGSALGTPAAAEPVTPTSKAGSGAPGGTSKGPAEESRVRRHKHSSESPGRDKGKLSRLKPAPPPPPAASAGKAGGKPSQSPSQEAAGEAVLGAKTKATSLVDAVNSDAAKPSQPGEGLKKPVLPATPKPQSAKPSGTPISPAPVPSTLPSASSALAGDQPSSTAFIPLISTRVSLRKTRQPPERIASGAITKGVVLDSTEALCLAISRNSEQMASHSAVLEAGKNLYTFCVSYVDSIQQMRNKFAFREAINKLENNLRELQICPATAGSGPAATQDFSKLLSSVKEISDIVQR
- PROCEDURE DETAILS: Tritiated thymidine uptake cell proliferation assay, BaF3 BCR/ABL
- Assay type: cell-based
- MEASUREMENT SETUP: 3[H]-thymidine uptake, 72 h; read-out: BaF BCR/ABL IC50
VALUE TYPE: GI50

// sample COc1ccc(-c2ccc3[nH]c4ncccc4c3c2)cc1 [R268] , its GI50 was > 25 µM

Noted for CN(C)CCSCC(=O)c1ccc2[nH]c3ncccc3c2c1 [R263] : its GI50 reads > 25 µM

According to the records, this molecule O=[N+]([O-])/C=C/c1ccc2[nH]c3ncc(Cl)cc3c2c1 [R266] displays GI50 of 2 µM

Query CC(=O)c1ccc2[nH]c3ncc(Cl)cc3c2c1 [R253, 6-acetyl-3-chloro-9H-pyrido[2,3-b]indole] yields GI50 of > 20 µM

Entry O=C(CSc1ccccn1)c1ccc2[nH]c3ncccc3c2c1 [R264] , GI50 reported as 23 µM

Field GI50 (entry Clc1cnc2[nH]c3ccc(Br)cc3c2c1 [R252, 6-bromo-3-chloro-9H-pyrido[2,3-b]indole] ) reads > 20 µM

Notebook: O=C(CBr)c1ccc2[nH]c3ncccc3c2c1 [R228] , GI50 read as 18 µM

GI50 reported for this molecule O=C(NCCc1ccc2[nH]c3ncc(Cl)cc3c2c1)c1ccccc1 [R265] : > 25 µM
